For each entry below, report its cytotoxicity at 70.5 h value.
ASSAY PROTOCOL: Human HepG2 cell viability assay in 384 well format
Type: toxicity, cell-based
Design: dose 125 nL, time 70.5 hour; concentration not given beside the values
CONDITIONS: HepG2 cells, read-out: Inhibition
Express the result in % but write the number alone.

cytotoxicity at 70.5 h measured on `COCc1ncn2c1CN(S(=O)(=O)c1cccc(OC)c1)CC2` = 8.77

cytotoxicity at 70.5 h measured on `c1nc2c(c(-c3ccsc3)n1)CCN(Cc1ccoc1)CC2` = 19.3

cytotoxicity at 70.5 h measured on `Cc1cn2c(=O)c(-c3ccnc(N4CCC[C@@H]4CO)n3)cnc2s1` = -3.36

cytotoxicity at 70.5 h measured on `CN(Cc1cnn(C)c1)C(=O)Nc1cccnc1-n1cccn1` = 14.6

cytotoxicity at 70.5 h measured on `Cc1ccc(C(=O)N2C[C@@H](N3CCN(C)CC3)[C@H]3OCCC[C@H]32)cn1` = -11.9

cytotoxicity at 70.5 h measured on Cc1nccn1C1CCCN(C(=O)c2cccc(Cn3ccnc3)c2)C1 (stereo unspecified) = -1.32

cytotoxicity at 70.5 h measured on `CN(C)C1CCN(C(=O)Cc2csc(-c3ncccn3)n2)CC1` = 0.448

cytotoxicity at 70.5 h measured on `Cc1ccc(CN2CCC3(CCCN3C(=O)C(C)C)CC2)o1` = 5

cytotoxicity at 70.5 h measured on `N#Cc1ccc(S(=O)(=O)Nc2ccc(N3CCOCC3)cn2)cc1` = 0.03

cytotoxicity at 70.5 h measured on `O=C(NCc1cnc2n1CCN(CC1CC1)CC2)C1CCC1` = -8.49

cytotoxicity at 70.5 h measured on `Cn1cc(CN2CC[C@H]3O[C@H](C(=O)Nc4cnccn4)CC[C@H]32)cn1` = 29.6

cytotoxicity at 70.5 h measured on `COCC(=O)N1CCc2ccc(=O)n(CC3CC3)c2CC1` = -2.86

cytotoxicity at 70.5 h measured on `COc1ccc(Oc2ccc(C(F)(F)F)cn2)cc1CN1CCCC1` = -11.6

cytotoxicity at 70.5 h measured on CN(C)C(C(=O)Nc1nccs1)c1c(F)cccc1Cl (stereo unspecified) = -0.246

cytotoxicity at 70.5 h measured on `CCc1nnc2n1CCN(C(=O)c1cn(-c3ccccc3)nn1)C2` = 3.13

cytotoxicity at 70.5 h measured on `COCCN(Cc1ccc(C)o1)C(=O)Nc1nnc2ccccn12` = -16.7

cytotoxicity at 70.5 h measured on CCc1nccn1C1CCCN(C(=O)c2ccnc(N(C)C)c2)C1 (stereo unspecified) = -7.75

cytotoxicity at 70.5 h measured on `Cc1cc(CN2CC[C@H]3[C@H]2CCN3C)oc1C` = -5.26

cytotoxicity at 70.5 h measured on CC(Cc1cn(CCc2n[nH]c(=O)[nH]2)nn1)c1ccccc1 (stereo unspecified) = -7.35

cytotoxicity at 70.5 h measured on `O=C(C1CCOCC1)N1CCO[C@H]2[C@H](OCc3ccncc3)CC[C@@H]21` = -9.92

cytotoxicity at 70.5 h measured on `Cc1oc(-c2ccccc2)nc1CC(=O)NC1=NCCS1` = -11

* * *

ASSAY PROTOCOL: Human HepG2 cell viability assay in 384 well format
Assay type: toxicity, cell-based
Set-up: dose 125 nL, time 70.5 hour; concentration not given beside the values
CONDITIONS: HepG2 cells, read-out: Inhibition
For each entry below, report its cytotoxicity at 70.5 h value.
Express the result in % but write the number alone.

cytotoxicity at 70.5 h measured on `CN1CCC(N(C)C(=O)c2cnc3c(cnn3C3CCCC3)c2)CC1` = -7.87

cytotoxicity at 70.5 h measured on `COCCN(C)C[C@@H]1CN(C(=O)c2ccc(=O)n(C)c2)C[C@@H]1CO` = -3.56

cytotoxicity at 70.5 h measured on `CCN(Cc1ccc2c(c1)OCO2)Cc1nc2c(cnn2C)c(=O)[nH]1` = 7.27

cytotoxicity at 70.5 h measured on `CCn1nccc1CNC(=O)CCC1CCCC1` = 18.7

cytotoxicity at 70.5 h measured on `Cc1ccc(OCCN(C)S(=O)(=O)N2CCOCC2)cc1` = -0.648

cytotoxicity at 70.5 h measured on `O=C1CC[C@]2(CC[C@@H](NC(=O)NCc3cccnc3)CC2)N1` = -2.72

cytotoxicity at 70.5 h measured on CCN1CCC(Cn2ccc3ccc(C(=O)OC)cc3c2=O)C1 (centres undefined) = -6.6

cytotoxicity at 70.5 h measured on CC(=O)N1CCCC(C(=O)NCCc2ccc(F)c(Br)c2)C1 (centres undefined) = -9.08

cytotoxicity at 70.5 h measured on `COc1ccc(C(=O)Nc2ccc3ncn(C(C)C)c(=O)c3c2)cc1` = -3.51

cytotoxicity at 70.5 h measured on `Fc1ccc(Cc2cccc(C3CCN(C4CCOCC4)CC3)n2)cc1` = 0.432

cytotoxicity at 70.5 h measured on `COc1cc(-c2cnnc(NCCSC)n2)cc(OC)c1OC` = -5.18

cytotoxicity at 70.5 h measured on Cc1noc(C)c1C(C)C(=O)N1CCCN(C)c2ccc(Cl)cc21 (centres undefined) = -6.12

cytotoxicity at 70.5 h measured on `CC(C)NC(=O)c1nnn(-c2ccc(F)cc2)c1C1CC1` = -4.05

cytotoxicity at 70.5 h measured on `N#Cc1ccc(NC2CCN(CC(F)F)CC2)c(F)c1` = -15.5

* * *

For each entry below, report its cytotoxicity at 70.5 h value.
ASSAY PROTOCOL: Human HepG2 cell viability assay in 384 well format
Format: toxicity, cell-based
Parameters: dose 125 nL, time 70.5 hour; concentration not given beside the values
CONDITIONS: HepG2 cells, read-out: Inhibition
Express the result in % but write the number alone.

cytotoxicity at 70.5 h measured on Cn1ccc2c(C(=O)N3CCC4(CCOC4)C3)cccc21 (stereo not drawn) = 23.5

cytotoxicity at 70.5 h measured on `Cc1noc(C)c1CN1C[C@H](OCC(=O)N(C)C)[C@H]2OCCC[C@H]21` = -6.96

cytotoxicity at 70.5 h measured on `Cc1noc(CC2CCN(Cc3ccc(CCC(C)(C)O)cc3)CC2)n1` = -10.5

cytotoxicity at 70.5 h measured on Cc1noc(CN2Cc3ccccc3CC2c2nnc(C)o2)n1 (stereo not drawn) = 4.3

cytotoxicity at 70.5 h measured on CCN(CC1CCOC1)C(=O)c1ccccc1S(C)(=O)=O (stereo not drawn) = -4.17

cytotoxicity at 70.5 h measured on `Cc1ncnc2c1CCN(C(=O)c1cccnc1)CC2` = -6.81

cytotoxicity at 70.5 h measured on `CC(=O)c1ccc(Cl)c(Cl)c1OCC(=O)NCC(F)(F)F` = -8.87

cytotoxicity at 70.5 h measured on COc1cccc2c1OCC(C(=O)N1CCN(S(=O)(=O)N(C)C)CC1)C2 (stereo not drawn) = -2.76

cytotoxicity at 70.5 h measured on O=C(CN1CCS(=O)(=O)CC1)NC1CCCCc2ccccc21 (stereo not drawn) = -1.09

cytotoxicity at 70.5 h measured on `CCN(CC)C(=O)Cn1cc(C(=O)NCCc2nc(C)c(C)s2)nn1` = -2.44

cytotoxicity at 70.5 h measured on `O=C(NCCc1nnc2n1CCC2)N1CCC2(CCCCC2)C1` = -0.937

cytotoxicity at 70.5 h measured on `Cc1ccc(C(=O)N2CC[C@@]3(O)CCCC[C@H]3C2)cc1` = 7.79

cytotoxicity at 70.5 h measured on `Cn1cnc(S(=O)(=O)N2CCCCc3ccccc32)c1` = 1.57

cytotoxicity at 70.5 h measured on `O=C(Cc1ccccn1)N1CCN2C[C@H](Oc3cccc(F)c3)C[C@H]2C1` = 33.7

cytotoxicity at 70.5 h measured on c1cnnc(N2CCCC2CNCc2cscn2)c1 (stereo not drawn) = -15

cytotoxicity at 70.5 h measured on CS(=O)(=O)NC(c1ccccc1)c1ccc2c(c1)CCCO2 (stereo not drawn) = -6.34

cytotoxicity at 70.5 h measured on O=C(CNc1cc(F)ccc1OCC1CCCO1)N1CCOCC1 (stereo not drawn) = -0.218

cytotoxicity at 70.5 h measured on `CCN1CCC(NC(=O)Cc2csc(C(C)(C)C)n2)CC1` = 24.8

* * *

ASSAY PROTOCOL: Human HepG2 cell viability assay in 384 well format
Assay type: toxicity, cell-based
Set-up: dose 125 nL, time 70.5 hour; concentration not given beside the values
CONDITIONS: HepG2 cells, read-out: Inhibition
For each entry below, report its cytotoxicity at 70.5 h value.
Express the result in % but write the number alone.

cytotoxicity at 70.5 h measured on `CCCC(=O)NCc1cccc(C(=O)OC)c1` = -9.06

cytotoxicity at 70.5 h measured on CC(C)(C)c1nnc(CN2CCCC2Cn2cncn2)o1 (stereo not drawn) = -11.3

cytotoxicity at 70.5 h measured on `Cn1c(-c2cccs2)nn(CCNS(=O)(=O)c2ccccc2Cl)c1=O` = -1.9

cytotoxicity at 70.5 h measured on CC(CO)NS(=O)(=O)c1cccc(C(C)C)c1 (stereo not drawn) = -9

cytotoxicity at 70.5 h measured on `CCCc1nc(CN(CCO)Cc2cc(Br)ccc2F)no1` = -13.1

cytotoxicity at 70.5 h measured on `c1cncc(CN2CCO[C@@H]3CN(Cc4ccoc4)CC[C@@H]3C2)c1` = -7.13

cytotoxicity at 70.5 h measured on CCN1CCc2[nH]nc(C(=O)N3CCCC3C)c2C1 (stereo not drawn) = 4.99

cytotoxicity at 70.5 h measured on CN(C)CCN1C(=O)CCC12CCCN(C(=O)CC1CC1)CC2 (stereo not drawn) = 20.2

cytotoxicity at 70.5 h measured on `Cc1ccc(N2CCCN(C(=O)c3cn(C)c4ccccc34)CC2)nn1` = -7.87

cytotoxicity at 70.5 h measured on `O=C(c1ccsc1)N1CCC(c2nnc(C3CC3)o2)CC1` = 28.3

cytotoxicity at 70.5 h measured on `CCNCCc1nc2cc(F)ccc2[nH]1` = -4.56

cytotoxicity at 70.5 h measured on COc1ccc(NC(=O)NC(C)Cc2ccco2)cn1 (stereo not drawn) = -11.4

cytotoxicity at 70.5 h measured on `Cc1c(C(=O)NC2CC(C)(C)NC(C)(C)C2)cnn1-c1ccc(F)cc1` = -2.72

cytotoxicity at 70.5 h measured on `COc1cc(N2C[C@H](C(=O)N3CCCC3)[C@@H]3CCO[C@@H]3C2)ncn1` = -0.329

cytotoxicity at 70.5 h measured on `CC(=O)Nc1ccc(F)c(S(=O)(=O)NC(C)(C)C)c1` = -6.2

cytotoxicity at 70.5 h measured on CCc1ccc(CCC(=O)N2CCOCC2c2ncon2)cc1 (stereo not drawn) = -9.85

cytotoxicity at 70.5 h measured on CN1CCN(Cc2cccnc2)C2(CCN(C3CCOCC3)C2)C1=O (stereo not drawn) = -5.52

cytotoxicity at 70.5 h measured on `O=C(CCCn1ccnc1)N[C@H]1CN(C2CCCC2)C[C@@H]1C1CC1` = -11.7
